# key: entry, value: half-life at 5 µM
# procedure_details: Stability in human hepatocytes
# Format: in vitro ADME
# run_conditions: t1/2, Human Hepatocytes, Diastereoisomer A

{"columns": ["molecule", "value_measured"],
 "data": [
  ["COC(=O)CCNC(=O)[C@@H]1OP(=O)(N[C@@H](C)C(=O)OCCc2ccccc2)OCC1(C)C (stereo partly drawn) [Compound No. 2]", "< 15 min"],
  ["COC(=O)CCNC(=O)[C@@H]1OP(=O)(OCCSC(=O)C(C)(C)C)OCC1(C)C (stereo partly drawn) [Compound No. 2-133]", "< 15 min"]
]}

Please look at the following molecule next.
Measured half-life at 5 µM, COC(=O)CCNC(=O)[C@@H]1OP(=O)(OCOC(=O)c2ccccc2)OCC1(C)C (stereo partly drawn) [Compound No. 64] : < 15 min

Every entry's value here was drawn from patent US10364263B2.
